Experiment: UV-Vis absorption and fluorescence spectroscopy of the Oxazine library
Assay type: physicochemical
Provide the reported Max Em of each item.
Write the figure, then the unit, nothing else.

Some entries whose results are on file:
INSERT INTO assay_data (compound, recordedmeasurement) VALUES
  ('CC/N=c1/cc2oc3cc4c(cc3nc-2cc1C)C(C)=CC(C)(C)N4CC [LGW03-57]', '680 nm'),
  ('CC/N=c1/cc2oc3cc(N)c(C)cc3nc-2cc1C [LGW06-10]', '621 nm');

Then this compound:
Please give the measured Max Em for this compound: CCCNc1cc2oc3c/c(=N/CC)c(C)cc-3nc2cc1C [LGW04-32]
638 nm
